Assay Procedure: Viability assay against CHO cells (MTT colorimetric assay)
Assay type: cell-based, Chinese hamster
Run Conditions: Chinese hamster, CHO cells, 7.8e-008 M; 72 h; replicates n = 1, 2, 3; read-out: % viable cells
Starred links: 1 amine or outer side, 2 acyl side, 3 side chain; linkers in the order of their positions; H or OH if unused. Positions of bridges follow the written chain, without caps; N, C: chain ends. Non-standard residues stand in square brackets, D forms with d. Residues, ends and D or L forms follow the SMILES beside them. Trp(2-yl) = O=C([C@H](Cc1c([*:3])[nH]c2ccccc12)N[*:1])[*:2]; Ile(4R-OH,5-OH) = C[C@H]([C@H](N)C(=O)O)[C@@H](O)CO; Pro(4R-NH2) = N[C@H]1CN[C@H](C(=O)O)C1
Recorded Metric: viability at 72 h, 7.8e-08 M (%)
Give just the numeric value; % need not be written.

Asked: Given the compound CC[C@H](C)[C@@H]1NC(=O)CNC(=O)[C@@H]2Cc3c([nH]c4ccccc34)SC[C@H](NC(=O)CNC1=O)C(=O)N[C@@H](CC(N)=O)C(=O)N1C[C@H](N)C[C@H]1C(=O)N[C@@H]([C@@H](C)[C@@H](O)CO)C(=O)N2 [Compound 6, NH2-Pro-amanitin] (cyclo(CN[Pro(4R-NH2)][Ile(4R-OH,5-OH)][Trp(2-yl)]GIG); thioether 1-5) , what is its reported viability at 72 h, 7.8e-08 M?
Given back: 96

###

Assay Procedure: Viability assay against CHO cells (MTT colorimetric assay)
Assay type: cell-based, Chinese hamster
Run Conditions: Chinese hamster, CHO cells, 2.5e-006 M; 72 h; replicates n = 1, 2, 3; read-out: % viable cells
Method: (f) Cell culture: Cells were cultured in Minimum Essential Medium Eagle—Alpha Modification (α-MEM) or […] Dulbecco's Modified Eagle Medium (DMEM), purchased from Gibco. […] All cell culture plastic ware was obtained from Coming or Falcon. Cells were cultured at 37° C. in a humidified chamber with 5% CO2. […] To assay cell viability, a nearly confluent tissue culture flask was trypsinized, and the cells were counted following treatment with Trypan blue, using a hemocytometer. […]
Starred links: 1 amine or outer side, 2 acyl side, 3 side chain; linkers in the order of their positions; H or OH if unused. Positions of bridges follow the written chain, without caps; N, C: chain ends. Non-standard residues stand in square brackets, D forms with d. Residues, ends and D or L forms follow the SMILES beside them. Trp(2-yl) = O=C([C@H](Cc1c([*:3])[nH]c2ccccc12)N[*:1])[*:2]; Pro(4R-SH) = O=C([C@@H]1C[C@@H](S[*:3])CN1[*:1])[*:2]; X2 = [N-]=[N+]=N[C@@H]1C[C@@H](C(=O)[*:2])N([*:1])C1; Ile(4R-OH,5-OH) = C[C@H]([C@H](N)C(=O)O)[C@@H](O)CO; Pro(4R-NH2) = N[C@H]1CN[C@H](C(=O)O)C1
Recorded Metric: viability at 72 h, 2.5e-06 M (%)
Numeric answer only, unit % assumed.

Asked: // viability at 72 h, 2.5e-06 M lookup, key: CC[C@H](C)[C@@H]1NC(=O)CNC(=O)[C@@H]2Cc3c([nH]c4ccccc34)SC[C@H](NC(=O)CNC1=O)C(=O)N[C@@H](CC(N)=O)C(=O)N1C[C@H](N=[N+]=[N-])C[C@H]1C(=O)N[C@@H]([C@@H](C)[C@@H](O)CO)C(=O)N2 [Compound 3, N3-Pro-amanitin] (cyclo(CN[X2][Ile(4R-OH,5-OH)][Trp(2-yl)]GIG); thioether 1-5)
Given back: 104

Asked: Another: CC[C@H](C)[C@@H]1NC(=O)CNC(=O)[C@@H]2Cc3c([nH]c4ccccc34)SC[C@H](NC(=O)CNC1=O)C(=O)N[C@@H](CC(N)=O)C(=O)N1C[C@H](S)C[C@H]1C(=O)N[C@@H]([C@@H](C)[C@@H](O)CO)C(=O)N2 [Compound 5, SH-Pro-amanitin] (cyclo(CN[Pro(4R-SH)][Ile(4R-OH,5-OH)][Trp(2-yl)]GIG); thioether 1-5)
Given back: 91

Asked: // repeat for CC[C@H](C)[C@@H]1NC(=O)CNC(=O)[C@@H]2Cc3c([nH]c4ccccc34)SC[C@H](NC(=O)CNC1=O)C(=O)N[C@@H](CC(N)=O)C(=O)N1C[C@H](N)C[C@H]1C(=O)N[C@@H]([C@@H](C)[C@@H](O)CO)C(=O)N2 [Compound 6, NH2-Pro-amanitin] (cyclo(CN[Pro(4R-NH2)][Ile(4R-OH,5-OH)][Trp(2-yl)]GIG); thioether 1-5) and report
Given back: 86

###

Could you please report measured viability at 72 h, 2e-05 M for the items listed next?
Assay Procedure: Viability assay against CHO cells (MTT colorimetric assay)
Format: cell-based, Chinese hamster
Run Conditions: Chinese hamster, CHO cells, 2e-005 M; 72 h; replicates n = 1, 2, 3; read-out: % viable cells
Starred links: 1 amine or outer side, 2 acyl side, 3 side chain; linkers in the order of their positions; H or OH if unused. Positions of bridges follow the written chain, without caps; N, C: chain ends. Non-standard residues stand in square brackets, D forms with d. Residues, ends and D or L forms follow the SMILES beside them. Trp(2-yl) = O=C([C@H](Cc1c([*:3])[nH]c2ccccc12)N[*:1])[*:2]; Pro(trans-4-guanidino) = N=C(N)N[C@H]1CN[C@H](C(=O)O)C1; Pro(4R-SH) = O=C([C@@H]1C[C@@H](S[*:3])CN1[*:1])[*:2]; X2 = [N-]=[N+]=N[C@@H]1C[C@@H](C(=O)[*:2])N([*:1])C1; Ile(4R-OH,5-OH) = C[C@H]([C@H](N)C(=O)O)[C@@H](O)CO; X5 = COC(=O)N[C@@H]1C[C@@H](C(=O)[*:2])N([*:1])C1; X1 = N#C[C@@H]1C[C@@H](C(=O)[*:2])N([*:1])C1; Pro(4R-NH2) = N[C@H]1CN[C@H](C(=O)O)C1
Could you give the number and then its unit, please?

Asked: I am curious: what viability at 72 h, 2e-05 M value has been reported for CC[C@H](C)[C@@H]1NC(=O)CNC(=O)[C@@H]2Cc3c([nH]c4ccccc34)SC[C@H](NC(=O)CNC1=O)C(=O)N[C@@H](CC(N)=O)C(=O)N1C[C@H](NC(=N)N)C[C@H]1C(=O)N[C@@H]([C@@H](C)[C@@H](O)CO)C(=O)N2 [Compound 7, Gdn-Pro-amanitin] (cyclo(CN[Pro(trans-4-guanidino)][Ile(4R-OH,5-OH)][Trp(2-yl)]GIG); thioether 1-5) ?
Given back: 99%

Asked: Now consider CC[C@H](C)[C@@H]1NC(=O)CNC(=O)[C@@H]2Cc3c([nH]c4ccccc34)SC[C@H](NC(=O)CNC1=O)C(=O)N[C@@H](CC(N)=O)C(=O)N1C[C@H](NC(=O)OC)C[C@H]1C(=O)N[C@@H]([C@@H](C)[C@@H](O)CO)C(=O)N2 [Compound 32, MeOCONH-Pro-amanitin] (cyclo(CN[X5][Ile(4R-OH,5-OH)][Trp(2-yl)]GIG); thioether 1-5) and answer again.
Given back: 99%

Asked: Same thing, different molecule: CC[C@H](C)[C@@H]1NC(=O)CNC(=O)[C@@H]2Cc3c([nH]c4ccccc34)SC[C@H](NC(=O)CNC1=O)C(=O)N[C@@H](CC(N)=O)C(=O)N1C[C@H](N=[N+]=[N-])C[C@H]1C(=O)N[C@@H]([C@@H](C)[C@@H](O)CO)C(=O)N2 [Compound 3, N3-Pro-amanitin] (cyclo(CN[X2][Ile(4R-OH,5-OH)][Trp(2-yl)]GIG); thioether 1-5)
Given back: 112%

Asked: How about this molecule: CC[C@H](C)[C@@H]1NC(=O)CNC(=O)[C@@H]2Cc3c([nH]c4ccccc34)SC[C@H](NC(=O)CNC1=O)C(=O)N[C@@H](CC(N)=O)C(=O)N1C[C@H](C#N)C[C@H]1C(=O)N[C@@H]([C@@H](C)[C@@H](O)CO)C(=O)N2 [Compound 4, CN-Pro-amanitin] (cyclo(CN[X1][Ile(4R-OH,5-OH)][Trp(2-yl)]GIG); thioether 1-5)
Given back: 121%

Asked: Item: CC[C@H](C)[C@@H]1NC(=O)CNC(=O)[C@@H]2Cc3c([nH]c4ccccc34)SC[C@H](NC(=O)CNC1=O)C(=O)N[C@@H](CC(N)=O)C(=O)N1C[C@H](S)C[C@H]1C(=O)N[C@@H]([C@@H](C)[C@@H](O)CO)C(=O)N2 [Compound 5, SH-Pro-amanitin] (cyclo(CN[Pro(4R-SH)][Ile(4R-OH,5-OH)][Trp(2-yl)]GIG); thioether 1-5)
Given back: 106%

Asked: What about this molecule? CC[C@H](C)[C@@H]1NC(=O)CNC(=O)[C@@H]2Cc3c([nH]c4ccccc34)SC[C@H](NC(=O)CNC1=O)C(=O)N[C@@H](CC(N)=O)C(=O)N1C[C@H](N)C[C@H]1C(=O)N[C@@H]([C@@H](C)[C@@H](O)CO)C(=O)N2 [Compound 6, NH2-Pro-amanitin] (cyclo(CN[Pro(4R-NH2)][Ile(4R-OH,5-OH)][Trp(2-yl)]GIG); thioether 1-5)
Given back: 92%
